B1: SEC22B (parent)
chain: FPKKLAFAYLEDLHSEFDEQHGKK

Variants of: B1
Assay: protein stability index of a GFP-peptide fusion (GPS, HEK-293T) (PSI 1-6); higher = more stable;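 also: lentivirally expressed fusions sorted by FACS into six bins by GFP to DsRed ratio, PSI derived from sequencing read proportions per bin multiplied by bin number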
Settings: c terminus: a fixed tail appended
quantity: protein stability index
Numbers only.

Answered examples (5):
>  <mutationNotation>
D12T

>  <protein stability index>
2.39

$$$$
>  <mutationNotation>
F17K

>  <protein stability index>
2.98

$$$$
>  <mutationNotation>
K3G

>  <protein stability index>
2.29

$$$$
>  <mutationNotation>
H14N

>  <protein stability index>
2.46

$$$$
>  <mutationNotation>
G22N

>  <protein stability index>
2.71

$$$$

Hi! Can you tell me protein stability index for each of these variants?
1. D12N
2. K3A
3. K4S
4. P2H
5. A6G
6. G22A
7. F17N
8. Q20G

**A:**
1. 2.97
2. 1.91
3. 1.55
4. 2.17
5. 2.45
6. 2.54
7. 2.76
8. 2.32

Hi! Can you tell me protein stability index for each of these variants?
1. H14V
2. A8N

**A:**
1: 1.98; 2: 2.83

Hi! Can you tell me protein stability index for each of these variants?
1. F7A
2. E11Y
3. K24E
4. A8I
5. L5H
6. E16T
7. Y9W

**A:**
1. 3.63
2. 1.98
3. 2.83
4. 2.4
5. 1.95
6. 2.36
7. 1.67

Data provenance is the supplement of paper PMC10567573.
